The entries below are paired with their reported EC50.
# Tested on: RSV Long strain
# TEST DETAILS: Viral cytopathic effect (CPE) assay, anti-RSV activity
# Assay type: cell-based, Respiratory Syncytial Virus
# TEST CONDITIONS: human respiratory syncytial virus, 144 h, RSV Long strain (ATCC); cell viability after 6 days, Cell Counting kit-8

{"SMILES DATA": "Cc1ccc2nc(N3CCS(=O)(=O)c4ccccc4C3)cc(N[C@@H](C)C(N)=O)c2c1", "TESTED SYSTEM": "RSV Long strain", "UNIT ANNOTATION": "µM", "EC50": 0.138}
{"SMILES DATA": "NCCNc1cc(N2CCOc3ccccc3C2)nc2ccccc12", "TESTED SYSTEM": "RSV Long strain", "UNIT ANNOTATION": "µM", "EC50": 0.25}
{"SMILES DATA": "C=Cc1ccc2nc(N3CCS(=O)(=O)c4ccccc4C3)cc(NCCCN)c2c1", "TESTED SYSTEM": "RSV Long strain", "UNIT ANNOTATION": "µM", "EC50": 0.094}
{"SMILES DATA": "Cc1ccc2nc(N3CCS(=O)(=O)c4ccccc4C3)cc(NCCC(=O)O)c2c1", "TESTED SYSTEM": "RSV Long strain", "UNIT ANNOTATION": "µM", "EC50": 8.79}
{"SMILES DATA": "NC1=N[C@@H](CCc2cc(N3CCCc4ccccc4C3)nc3ccccc23)CO1", "TESTED SYSTEM": "RSV Long strain", "UNIT ANNOTATION": "µM", "EC50": 2.52}
